Ref: PubChem BioAssay (EPA / NIEHS)

biological target: Estrogen receptor (Homo sapiens) (UniProt P03372); assay: NVS_NR_hER: NovaScreen (NVS) Nuclear Receptor Binding Assay for human Estrogen Receptor (ER) (AID 2283348)
Sequence (P03372 whole entry, looked up): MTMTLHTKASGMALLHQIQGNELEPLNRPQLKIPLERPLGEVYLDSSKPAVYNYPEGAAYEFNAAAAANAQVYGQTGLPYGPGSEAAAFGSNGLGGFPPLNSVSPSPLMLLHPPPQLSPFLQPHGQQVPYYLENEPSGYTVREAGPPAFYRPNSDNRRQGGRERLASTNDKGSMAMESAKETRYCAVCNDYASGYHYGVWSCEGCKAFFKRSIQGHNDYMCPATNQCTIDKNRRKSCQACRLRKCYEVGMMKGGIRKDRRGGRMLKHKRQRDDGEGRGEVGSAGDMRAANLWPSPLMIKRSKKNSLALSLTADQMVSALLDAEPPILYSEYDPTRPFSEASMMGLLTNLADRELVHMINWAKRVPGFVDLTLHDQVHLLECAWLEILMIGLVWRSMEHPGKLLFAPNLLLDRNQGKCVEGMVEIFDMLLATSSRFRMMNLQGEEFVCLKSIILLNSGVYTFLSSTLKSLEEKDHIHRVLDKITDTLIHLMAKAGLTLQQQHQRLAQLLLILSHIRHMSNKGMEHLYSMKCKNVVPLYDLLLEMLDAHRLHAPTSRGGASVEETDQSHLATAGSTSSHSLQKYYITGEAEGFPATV
Results filed as inconclusive are left out. Activity calls are given as the source filed them. Rule for the calls: active = hit-call score of the fitted dose curve at least 0.9, where 1 is the maximum; inconclusive = response in the unintended direction; inactive = score below 0.9.
Result category, one only: active, inactive

Query: recorded result category for C[C@H]1CCCC(=O)CCC/C=C/c2cc(O)cc(O)c2C(=O)O1 in this test
active

# fetch the recorded call for BrCCBr here
inactive

Recorded test call requested for COP(=O)(OC)O/C(=C\Cl)c1cc(Cl)c(Cl)cc1Cl
inactive

Could you kindly confirm the outcome this assay logged for CCC[CH2][Sn]([CH2]CCC)([CH2]CCC)[O]C(=O)c1ccccc1 ?
active

Recorded test outcome, item CC(C)(c1ccc(OCC2CO2)cc1)c1ccc(OCC2CO2)cc1 (stereo not given)
active

Call for entry CCOP(=S)(OCC)SCSP(=S)(OCC)OCC :
inactive

Entry Fc1ccc(C2(Cn3cncn3)OC2c2ccccc2Cl)cc1 (stereo not given) : call = ?
inactive

Call for entry CC(C)(c1ccccc1)c1ccc(O)c(C(C)(C)c2ccccc2)c1 :
inactive

Just curious, what result did CC(C)C1CCC(Cc2ccc(Cl)cc2)C1(O)Cn1cncn1 (stereo not given) get here?
inactive

Outcome logged for COP(=S)(OC)Oc1cc(Cl)c(Br)cc1Cl in this assay:
inactive
